Origin of the recorded values: paper PMC8188212

Target: T1, death receptor 6 (DR6) protein (UniProt O75509 42-349, labelled with RED-tris-NTA second-generation dye)
T1 construct: death receptor 6 (DR6), bought recombinant protein; source: bought: Sino Biology, Inc. (Shanghai, China)
T1 sequence (looked up): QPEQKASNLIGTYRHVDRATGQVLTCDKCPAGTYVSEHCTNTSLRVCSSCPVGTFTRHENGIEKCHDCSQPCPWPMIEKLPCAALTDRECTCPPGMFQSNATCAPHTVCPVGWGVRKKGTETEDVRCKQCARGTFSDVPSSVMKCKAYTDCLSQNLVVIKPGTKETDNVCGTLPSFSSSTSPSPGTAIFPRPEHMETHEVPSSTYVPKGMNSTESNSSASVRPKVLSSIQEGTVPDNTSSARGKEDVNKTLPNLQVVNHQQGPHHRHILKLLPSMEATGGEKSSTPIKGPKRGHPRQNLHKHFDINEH
Assay: MST; DR6 protein labelled with RED-tris-NTA second-generation dye, final 50 x 10^-9 M; peptide prepared at 20 x 10^-6 M, diluted serially 1:1 in PBS-T over 12 tubes and mixed with an equal volume of labelled DR6; NanoTemper Monolith NT.015
Settings: both partners purified
observation-type: Kd
# do not omit the unit; it follows the number

Query: Would you kindly share the measured Kd for SHTDTNQ (heptapeptide selected from a random phage display library against DR6; source: synthetic peptide (SPPS)) [AHP-13] ?
Result: 457 nM
